Tested on: T. cruzi Tulauen strain trypomastigote
Experiment: Anti-trypomastigote activity, resazurin assay, Tulauen strain
Type: cell-based
Conditions: Trypanosoma cruzi, read-out: half-inhibitory concentration (IC50), Tulauan strain trypomastigote
pIC50: −log10 of the molar value.
assay readout: pIC50

> print(dat)
                         sample.smiles  meas.value
1  O=C(Cn1ccnc1[N+](=O)[O-])NCc1ccccc1        4.91
